Biological target: Abf1 (UniProt P14164)
Sequence: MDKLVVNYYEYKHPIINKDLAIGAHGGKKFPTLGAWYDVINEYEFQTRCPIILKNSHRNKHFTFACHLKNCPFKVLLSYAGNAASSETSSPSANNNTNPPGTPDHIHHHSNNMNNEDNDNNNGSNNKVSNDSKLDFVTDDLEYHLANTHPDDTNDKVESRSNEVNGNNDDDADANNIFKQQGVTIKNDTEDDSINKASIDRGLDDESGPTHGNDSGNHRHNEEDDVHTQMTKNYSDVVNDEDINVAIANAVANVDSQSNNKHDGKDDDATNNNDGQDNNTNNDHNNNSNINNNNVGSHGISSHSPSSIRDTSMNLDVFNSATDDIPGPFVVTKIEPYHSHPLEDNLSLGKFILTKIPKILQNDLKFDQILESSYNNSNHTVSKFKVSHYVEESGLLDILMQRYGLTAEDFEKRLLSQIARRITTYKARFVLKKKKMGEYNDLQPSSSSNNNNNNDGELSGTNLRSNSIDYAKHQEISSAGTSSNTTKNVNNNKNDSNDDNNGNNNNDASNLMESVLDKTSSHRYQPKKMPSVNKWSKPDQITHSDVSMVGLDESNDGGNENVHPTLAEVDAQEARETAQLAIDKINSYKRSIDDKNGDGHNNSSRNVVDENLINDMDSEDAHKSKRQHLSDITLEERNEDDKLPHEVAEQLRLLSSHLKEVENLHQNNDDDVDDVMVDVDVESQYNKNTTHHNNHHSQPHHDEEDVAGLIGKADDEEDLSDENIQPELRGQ
Experiment: PBM E-score (8-mer binding enrichment) (E-score (-0.5 to 0.5)); higher = stronger / more preferred TF binding
Details: protein concentration: 200 nM; construct: GST-full length
Whole data set: some 33,000 sequences, median “E-score (-0.5 to 0.5)” near -0.015, cut for the highest 2% near 0.3. The list comes from a sample in which the highest values are over-represented; it also holds close analogues and randomly drawn sequences.
metric-name: PBM E-score
# respond with the number and nothing more

Guide cases for PBM E-score, answers given:
ATACGAAA	0.349
ATTCTATC	0.127
ATACGACC	0.239
ATACGAAG	0.328
ATCACCAC	0.356
ATACGATG	0.261
GATTACAC	0.0768
ATAATAGC	0.0936

Specify reported PBM E-score for the sequence shown: "ACTGGTCT"
-0.176

Specify reported PBM E-score for the sequence shown: "ACACGAAG"
0.269

Specify reported PBM E-score for the sequence shown: "CGTGGGAG"
0.0501

Specify reported PBM E-score for the sequence shown: "GCATCACC"
-0.101

Specify reported PBM E-score for the sequence shown: "ACATCACA"
0.183

---

Biological target: Abf1 (UniProt P14164)
Sequence: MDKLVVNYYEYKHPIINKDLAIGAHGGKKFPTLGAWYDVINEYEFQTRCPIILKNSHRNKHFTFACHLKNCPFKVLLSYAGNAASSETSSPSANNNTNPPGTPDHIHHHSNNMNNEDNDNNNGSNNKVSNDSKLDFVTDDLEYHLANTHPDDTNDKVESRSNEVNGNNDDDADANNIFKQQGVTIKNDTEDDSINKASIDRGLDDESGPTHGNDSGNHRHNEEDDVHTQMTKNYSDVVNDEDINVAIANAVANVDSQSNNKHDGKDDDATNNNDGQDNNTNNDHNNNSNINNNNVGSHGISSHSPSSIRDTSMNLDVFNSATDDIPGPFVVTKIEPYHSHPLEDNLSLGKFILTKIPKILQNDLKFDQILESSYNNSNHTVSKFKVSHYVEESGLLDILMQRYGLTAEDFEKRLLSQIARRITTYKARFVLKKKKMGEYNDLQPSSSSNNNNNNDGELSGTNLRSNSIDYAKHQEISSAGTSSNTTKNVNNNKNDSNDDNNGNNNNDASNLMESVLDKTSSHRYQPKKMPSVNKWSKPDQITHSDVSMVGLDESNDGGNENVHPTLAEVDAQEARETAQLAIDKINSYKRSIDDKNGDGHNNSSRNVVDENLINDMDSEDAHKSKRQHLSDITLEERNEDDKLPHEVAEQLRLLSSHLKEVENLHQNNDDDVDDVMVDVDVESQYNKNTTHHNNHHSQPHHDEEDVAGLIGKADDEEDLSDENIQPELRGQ
Assay: PBM E-score (8-mer binding enrichment) (E-score (-0.5 to 0.5)); higher = stronger / more preferred TF binding
Settings: protein concentration: 200 nM; construct: GST-full length
Whole data set: some 33,000 sequences, median “E-score (-0.5 to 0.5)” near -0.015, cut for the highest 2% near 0.3. Only a selection was taken, and the highest values are over-represented in it overall.
Listing of entries alongside the reported PBM E-score.
# respond with the number and nothing more

Guide cases for PBM E-score, answers given:
GATGACAA	0.369
CATGACAC	0.218
AATGACAT	0.39
CGTACGCA	0.217
GTTAGCAA	0.104

Turning now to a further record.
Specify reported PBM E-score for the sequence shown: "CTTACGAA"
0.216

The values you see were collected from the supplement of paper PMC3334620.
